- TARGET DESC: KAT-7 (Homo sapiens (Human), UniProt O95251)
- Sequence (O95251 other isoform, or with tags, fused parts or gaps): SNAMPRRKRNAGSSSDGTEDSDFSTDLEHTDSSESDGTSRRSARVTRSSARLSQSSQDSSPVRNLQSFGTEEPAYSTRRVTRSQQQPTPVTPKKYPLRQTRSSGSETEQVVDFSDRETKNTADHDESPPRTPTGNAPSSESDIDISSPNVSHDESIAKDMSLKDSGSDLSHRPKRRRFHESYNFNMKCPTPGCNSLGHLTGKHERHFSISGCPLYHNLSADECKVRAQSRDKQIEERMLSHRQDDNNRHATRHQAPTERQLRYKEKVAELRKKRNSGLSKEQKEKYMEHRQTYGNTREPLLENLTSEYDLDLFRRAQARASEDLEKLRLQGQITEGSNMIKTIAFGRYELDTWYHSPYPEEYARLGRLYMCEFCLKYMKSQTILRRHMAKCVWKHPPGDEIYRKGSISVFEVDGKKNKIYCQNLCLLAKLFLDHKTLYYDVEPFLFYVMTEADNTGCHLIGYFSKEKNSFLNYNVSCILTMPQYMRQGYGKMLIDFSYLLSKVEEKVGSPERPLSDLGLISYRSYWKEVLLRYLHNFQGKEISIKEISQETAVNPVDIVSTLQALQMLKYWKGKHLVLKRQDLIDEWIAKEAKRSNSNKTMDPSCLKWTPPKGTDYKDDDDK
- ASSAY OVERVIEW: KAT-7 biochemical inhibition assay (SAMDI mass spectrometry)
MEASURED ATTRIBUTE: IC50

Entry Cc1cc(-c2cn(C)cn2)cc(C(=O)NNS(=O)(=O)CC2CCOCC2)c1F [Compound I-130] ; IC50 = < 10 µM

Quick note, IC50 for O=C(NNS(=O)(=O)CC1CCOCC1)c1cc(-c2cocn2)cc(Cl)c1F [Compound I-68] landed at 10 to 50 µM

Data point: Cn1cnc(-c2cc(Cl)c(F)c(C(=O)NNS(=O)(=O)c3cnn(CCOCc4ccccc4)c3)c2)c1 [Compound I-361] ; IC50 = < 10 µM

// IC50 value for CC(C)NC(=O)N1CCCC(CS(=O)(=O)NNC(=O)c2cc(-c3cn(C)cn3)cc(Cl)c2F)C1 (stereo not shown) [Compound I-187] : < 10 µM

Record Cc1cc(-c2cn(C)cn2)cc(C(=O)NNS(=O)(=O)C2CCCCC2)c1F [Compound I-127] , field IC50: < 10 µM

Record Cn1cnc(-c2cc(Cl)c(F)c(C(=O)NNS(=O)(=O)C[C@H]3CC[C@@H](N(C)C(=O)OC(C)(C)C)CC3)c2)c1 [Compound I-331] , field IC50: < 10 µM

For reference, reported IC50 for Cc1nc(-c2cc(Cl)c(F)c(C(=O)NNS(=O)(=O)C3CCOCC3)c2)cn1C [Compound I-37] stands at 10 to 50 µM
